# testedSystem: NA of A/Washington/01/2007 A(H3N2), WT (Influenza A virus)
# protocol: biochemical
reportedMetric: IC50 (nM)
Expressed in nM, but write only the number.

Which IC50 reading was recorded for the compound CC(=O)N[C@H]1[C@H]([C@H](O)[C@H](O)CO)OC(C(=O)O)=C[C@@H]1N=C(N)N [Zanamivir, zanamivir] ? 1.1
